Measured Swelling accompanies every entry in the list below.
Tested on: carrageenan-induced toe swelling in SD rats
measurement-description: Carrageenan-induced acute toe swelling in rats
Type: in vivo, rat
Design: unit not given here
conditions: 20 mg/kg once a day for 3 days; 1 h after carrageenan
Where no end group is shown, it is not given here.
outcome-measure: Swelling

>>> df
                                  substance  endpoint_value
0  mPEG-ALD5k-Arg-Gly-Ala-Asp-Arg-Ala-Gly-Gly-Gly-Gly-Arg-Gly-Asp ({mPEG‑ALD 5 kDa}-RGADRAGGGGRGD) [mPEG-ALD5k-HM-1]            0.21
1  mPEG-ALD10k-Arg-Gly-Ala-Asp-Arg-Ala-Gly-Gly-Gly-Gly-Arg-Gly-Asp ({mPEG‑ALD 10 kDa}-RGADRAGGGGRGD) [mPEG-ALD10k-HM-1]            0.24
2  mPEG2-NHS10k-Arg-Gly-Ala-Asp-Arg-Ala-Gly-Gly-Gly-Gly-Arg-Gly-Asp ({mPEG2‑NHS 10 kDa}-RGADRAGGGGRGD) [mPEG2-NHS10k-HM-1]            0.24
3  mPEG-SC10k-Arg-Gly-Ala-Asp-Arg-Ala-Gly-Gly-Gly-Gly-Arg-Gly-Asp ({mPEG‑SC 10 kDa}-RGADRAGGGGRGD) [mPEG-SC10k-HM-1]            0.25
4  mPEG2-NHS5k-Arg-Gly-Ala-Asp-Arg-Ala-Gly-Gly-Gly-Gly-Arg-Gly-Asp ({mPEG2‑NHS 5 kDa}-RGADRAGGGGRGD) [mPEG2-NHS5k-HM-1]            0.22
5  mPEG-SC5k-Arg-Gly-Ala-Asp-Arg-Ala-Gly-Gly-Gly-Gly-Arg-Gly-Asp ({mPEG‑SC 5 kDa}-RGADRAGGGGRGD) [mPEG-SC5k-HM-1]            0.23

* * *

Tested on: IL-1β production by mouse peritoneal macrophages
measurement-description: IL-1β production by mouse peritoneal macrophages (ELISA)
Assay type: cell-based
conditions: 160 μg/mL, 48 h
Where no end group is shown, it is not given here.
Measured IL-1β accompanies every entry in the list below.
outcome-measure: IL-1β (pg/mL)

>>> print(df.to_string())
                                  substance  outcome_measure  endpoint_value
0  mPEG-bALD40k-Arg-Gly-Ala-Asp-Arg-Ala-Gly-Gly-Gly-Gly-Arg-Gly-Asp ({mPEG‑bALD 40 kDa}-RGADRAGGGGRGD) [mPEG-bALD40k-HM-1]            IL-1β          518.91
1  mPEG-ALD40k-Arg-Gly-Ala-Asp-Arg-Ala-Gly-Gly-Gly-Gly-Arg-Gly-Asp ({mPEG‑ALD 40 kDa}-RGADRAGGGGRGD) [mPEG-ALD40k-HM-1]            IL-1β          495.96
2  mPEG2-NHS40k-Arg-Gly-Ala-Asp-Arg-Ala-Gly-Gly-Gly-Gly-Arg-Gly-Asp ({mPEG2‑NHS 40 kDa}-RGADRAGGGGRGD) [mPEG2-NHS40k-HM-1]            IL-1β          568.00
3  mPEG-SC40k-Arg-Gly-Ala-Asp-Arg-Ala-Gly-Gly-Gly-Gly-Arg-Gly-Asp ({mPEG‑SC 40 kDa}-RGADRAGGGGRGD) [mPEG-SC40k-HM-1]            IL-1β          553.22

* * *

conditions: in vivo
Where no end group is shown, it is not given here.
Measured MRT0-∞ accompanies every entry in the list below.
outcome-measure: MRT0-∞ (h)

>>> df
                                   substance  endpoint_value
 0  mPEG-bALD20k-Arg-Gly-Ala-Asp-Arg-Ala-Gly-Gly-Gly-Gly-Arg-Gly-Asp ({mPEG‑bALD 20 kDa}-RGADRAGGGGRGD) [mPEG-bALD20k-HM-1]           18.32
 1  mPEG-bALD5k-Arg-Gly-Ala-Asp-Arg-Ala-Gly-Gly-Gly-Gly-Arg-Gly-Asp ({mPEG‑bALD 5 kDa}-RGADRAGGGGRGD) [mPEG-bALD5k-HM-1]            8.46
 2  mPEG2-NHS20k-Arg-Gly-Ala-Asp-Arg-Ala-Gly-Gly-Gly-Gly-Arg-Gly-Asp ({mPEG2‑NHS 20 kDa}-RGADRAGGGGRGD) [mPEG2-NHS20k-HM-1]           18.16
 3  mPEG-ALD5k-Arg-Gly-Ala-Asp-Arg-Ala-Gly-Gly-Gly-Gly-Arg-Gly-Asp ({mPEG‑ALD 5 kDa}-RGADRAGGGGRGD) [mPEG-ALD5k-HM-1]            8.15
 4  mPEG-SC5k-Arg-Gly-Ala-Asp-Arg-Ala-Gly-Gly-Gly-Gly-Arg-Gly-Asp ({mPEG‑SC 5 kDa}-RGADRAGGGGRGD) [mPEG-SC5k-HM-1]            7.68
 5  mPEG2-NHS5k-Arg-Gly-Ala-Asp-Arg-Ala-Gly-Gly-Gly-Gly-Arg-Gly-Asp ({mPEG2‑NHS 5 kDa}-RGADRAGGGGRGD) [mPEG2-NHS5k-HM-1]            8.02
 6  mPEG-ALD10k-Arg-Gly-Ala-Asp-Arg-Ala-Gly-Gly-Gly-Gly-Arg-Gly-Asp ({mPEG‑ALD 10 kDa}-RGADRAGGGGRGD) [mPEG-ALD10k-HM-1]           11.05
 7  mPEG2-NHS40k-Arg-Gly-Ala-Asp-Arg-Ala-Gly-Gly-Gly-Gly-Arg-Gly-Asp ({mPEG2‑NHS 40 kDa}-RGADRAGGGGRGD) [mPEG2-NHS40k-HM-1]           15.27
 8  mPEG-SC40k-Arg-Gly-Ala-Asp-Arg-Ala-Gly-Gly-Gly-Gly-Arg-Gly-Asp ({mPEG‑SC 40 kDa}-RGADRAGGGGRGD) [mPEG-SC40k-HM-1]           16.36
 9  mPEG2-NHS10k-Arg-Gly-Ala-Asp-Arg-Ala-Gly-Gly-Gly-Gly-Arg-Gly-Asp ({mPEG2‑NHS 10 kDa}-RGADRAGGGGRGD) [mPEG2-NHS10k-HM-1]           13.08
10  mPEG-SC20k-Arg-Gly-Ala-Asp-Arg-Ala-Gly-Gly-Gly-Gly-Arg-Gly-Asp ({mPEG‑SC 20 kDa}-RGADRAGGGGRGD) [mPEG-SC20k-HM-1]           17.64
11  mPEG-ALD20k-Arg-Gly-Ala-Asp-Arg-Ala-Gly-Gly-Gly-Gly-Arg-Gly-Asp ({mPEG‑ALD 20 kDa}-RGADRAGGGGRGD) [mPEG-ALD20k-HM-1]           18.65
12  mPEG-bALD10k-Arg-Gly-Ala-Asp-Arg-Ala-Gly-Gly-Gly-Gly-Arg-Gly-Asp ({mPEG‑bALD 10 kDa}-RGADRAGGGGRGD) [mPEG-bALD10k-HM-1]           11.97
13  mPEG-SC10k-Arg-Gly-Ala-Asp-Arg-Ala-Gly-Gly-Gly-Gly-Arg-Gly-Asp ({mPEG‑SC 10 kDa}-RGADRAGGGGRGD) [mPEG-SC10k-HM-1]           12.67
14  mPEG-ALD40k-Arg-Gly-Ala-Asp-Arg-Ala-Gly-Gly-Gly-Gly-Arg-Gly-Asp ({mPEG‑ALD 40 kDa}-RGADRAGGGGRGD) [mPEG-ALD40k-HM-1]           16.52
15  mPEG-bALD40k-Arg-Gly-Ala-Asp-Arg-Ala-Gly-Gly-Gly-Gly-Arg-Gly-Asp ({mPEG‑bALD 40 kDa}-RGADRAGGGGRGD) [mPEG-bALD40k-HM-1]           16.75

* * *

Tested on: mouse spleen lymphocytes
measurement-description: ConA-stimulated mouse spleen lymphocyte proliferation (MTT)
Type: cell-based
conditions: 20 μg/mL, ConA 5 μg/mL, 48 h
Where no end group is shown, it is not given here.
outcome-measure: Inhibition Rate of spleen lymphocyte proliferation (%)

>>> df
                                   substance  measurement_units  endpoint_value
 0  mPEG2-NHS20k-Arg-Gly-Ala-Asp-Arg-Ala-Gly-Gly-Gly-Gly-Arg-Gly-Asp ({mPEG2‑NHS 20 kDa}-RGADRAGGGGRGD) [mPEG2-NHS20k-HM-1]                  %           12.16
 1  mPEG2-NHS10k-Arg-Gly-Ala-Asp-Arg-Ala-Gly-Gly-Gly-Gly-Arg-Gly-Asp ({mPEG2‑NHS 10 kDa}-RGADRAGGGGRGD) [mPEG2-NHS10k-HM-1]                  %           20.09
 2  mPEG-SC20k-Arg-Gly-Ala-Asp-Arg-Ala-Gly-Gly-Gly-Gly-Arg-Gly-Asp ({mPEG‑SC 20 kDa}-RGADRAGGGGRGD) [mPEG-SC20k-HM-1]                  %            9.91
 3  mPEG-SC10k-Arg-Gly-Ala-Asp-Arg-Ala-Gly-Gly-Gly-Gly-Arg-Gly-Asp ({mPEG‑SC 10 kDa}-RGADRAGGGGRGD) [mPEG-SC10k-HM-1]                  %           20.42
 4  mPEG-ALD5k-Arg-Gly-Ala-Asp-Arg-Ala-Gly-Gly-Gly-Gly-Arg-Gly-Asp ({mPEG‑ALD 5 kDa}-RGADRAGGGGRGD) [mPEG-ALD5k-HM-1]                  %           30.42
 5  mPEG-bALD20k-Arg-Gly-Ala-Asp-Arg-Ala-Gly-Gly-Gly-Gly-Arg-Gly-Asp ({mPEG‑bALD 20 kDa}-RGADRAGGGGRGD) [mPEG-bALD20k-HM-1]                  %           12.02
 6  mPEG-SC5k-Arg-Gly-Ala-Asp-Arg-Ala-Gly-Gly-Gly-Gly-Arg-Gly-Asp ({mPEG‑SC 5 kDa}-RGADRAGGGGRGD) [mPEG-SC5k-HM-1]                  %           28.16
 7  mPEG-bALD10k-Arg-Gly-Ala-Asp-Arg-Ala-Gly-Gly-Gly-Gly-Arg-Gly-Asp ({mPEG‑bALD 10 kDa}-RGADRAGGGGRGD) [mPEG-bALD10k-HM-1]                  %           21.18
 8  mPEG-ALD20k-Arg-Gly-Ala-Asp-Arg-Ala-Gly-Gly-Gly-Gly-Arg-Gly-Asp ({mPEG‑ALD 20 kDa}-RGADRAGGGGRGD) [mPEG-ALD20k-HM-1]                  %           12.14
 9  mPEG2-NHS5k-Arg-Gly-Ala-Asp-Arg-Ala-Gly-Gly-Gly-Gly-Arg-Gly-Asp ({mPEG2‑NHS 5 kDa}-RGADRAGGGGRGD) [mPEG2-NHS5k-HM-1]                  %           29.62
10  mPEG-ALD10k-Arg-Gly-Ala-Asp-Arg-Ala-Gly-Gly-Gly-Gly-Arg-Gly-Asp ({mPEG‑ALD 10 kDa}-RGADRAGGGGRGD) [mPEG-ALD10k-HM-1]                  %           22.08
11  mPEG-bALD5k-Arg-Gly-Ala-Asp-Arg-Ala-Gly-Gly-Gly-Gly-Arg-Gly-Asp ({mPEG‑bALD 5 kDa}-RGADRAGGGGRGD) [mPEG-bALD5k-HM-1]                  %           28.56
